Test system: SF-268 CNS
experiment: NCI-60 one-dose screen, 48 h (100 = growth as untreated, 0 = no growth, -100 = all killed)
experimental_setup: 10 µM unless noted
The panel holds about 83,000 compounds, 20% with a hit somewhere; the sample as a whole holds those more often.
Listed next: entries and their corresponding growth.
recorded_metric: growth (%)

compound	target_under_test	numeric_result
O=c1ccc(-c2nc(N3CCOCC3)c3ccccc3n2)c[nH]1	SF-268 CNS	88.1
O=[N+]([O-])c1cc(Br)c2cccc3c2c1CC3	SF-268 CNS	109
CNCCn1c(=O)c2cc(OC)c(OC)cc2c2ccc3cc4c(cc3c21)OCO4	SF-268 CNS	11.9
CCCCC/C=C/C(C)=C/C1CC(C)C/C=C/CCC(O)C(OC(N)=O)CCC(C)CC(O)C(C)C(=O)O1 (stereo not given)	SF-268 CNS	104
O=C(/C=C/c1ccc(F)cc1)c1ccc(NC(=O)N2CCN(c3cc4c(cc3F)c(=O)c(C(=O)O)cn4C3CC3)CC2)cc1	SF-268 CNS	89.9
Cc1nc2ccc(Cl)cn2c1-c1nnc(SCc2ccc([N+](=O)[O-])cc2)o1	SF-268 CNS	46.1
CCc1ccc(-c2cn3ccnc3c(-c3ccc4ncn(Cc5ccccc5)c4c3)n2)cc1	SF-268 CNS	69.5
CN1CCN(CCNc2nccc(-c3c(-c4cccc(O)c4)nc4sccn34)n2)S1(=O)=O	SF-268 CNS	85.6
CCN(c1ccccc1)S(=O)(=O)c1cc([N+](=O)[O-])ccc1Cl	SF-268 CNS	77.4
COc1cc2oc(-c3cccc(C(=O)Nc4ccc(Cl)cc4)c3)cc(=O)c2c(O)c1OC	SF-268 CNS	28.6
